Where do the numbers come from? From patent US20080312435A1.

Field: melting point. Provide a value for each of the molecules that follow.

So, CCn1c(C)c(C(C)(C)C)s/c1=N\C(=O)c1ccc(C)cc1Br ? Its melting point was 100 to 102 °C

So, CCOCCn1/c(=N/C(=O)c2cccc(Cl)c2Cl)cc(C(C)(C)C)n1C ? Its melting point was 145 to 146 °C

So, Cc1c(C(C)(C)C)s/c(=N\C(=O)c2cc(C(F)(F)F)ccc2N2CCCCC2)n1CC1CC1 ? Its melting point was 138 to 140 °C

So, CC(C)(C)c1nn(CC2CC2)/c(=N/C(=O)c2cnccc2Cl)s1 ? Its melting point was 62 to 63 °C

So, Cc1c(C(C)(C)C)s/c(=N\C(=O)C(F)(F)C(F)F)n1CC1CC1 ? Its melting point was 93 to 94 °C

So, Cc1c(C(C)(C)C)s/c(=N\C(=O)c2cccc(C(=O)O)c2)n1C ? Its melting point was 250 to 252 °C

So, COc1ccc(OC)c(C(=O)/N=c2\sc(C(C)(C)C)c(C)n2CC2CC2)c1 ? Its melting point was 83 to 85 °C

So, COCCn1c(C)c(C(C)(C)C)s/c1=N\C(=O)c1cccc(I)c1 ? Its melting point was 119 to 121 °C

So, CCn1c(C)cs/c1=N\C(=O)c1cccc(C(F)(F)F)c1F ? Its melting point was 48 to 50 °C
